Assay: in vivo
Conditions: male, rat, iv, 1 mg/kg
quantityMeasured: Kp
Number only, no unit.

Ask | For the compound CC[C@@H]1SC2(CCN(C)CC2)NC1=O [AF267B] , give its measured Kp value.
Reply | 1.79
